Assign IC50 to each entry below.
Molecular target: human PDHK2 (hPDHK2) (Homo sapiens (Human), UniProt Q15119)
Test: Inhibitory action of PDHK activity in vitro (kinase reaction, residual PDH activity measured)
Type: biochemical
Settings: PDHK inhibitory activity, class symbol of IC50

CCCCCCOc1ccc2c(c1)C(O)(C(F)(F)F)c1ccccc1-2 (centres unmarked) : 100 to 1000 nM
NC(=O)c1cc(C(=O)N2CCC2)cc2c1-c1ccccc1C2(O)C(F)(F)F (centres unmarked) : < 100 nM
CC(=O)Nc1ccc2c(c1)-c1ccccc1C2(O)C(F)(F)F (centres unmarked) : > 1000 nM
OC1(C(F)(F)F)c2ccccc2-c2ccc(-c3cc(Cl)cc(Cl)c3)cc21 (centres unmarked) : > 1000 nM

Required: IC50, one value per compound below.
1. CCOC(=O)c1ccc(-c2cc(Cl)c3c(c2)C(O)(C(F)(F)F)c2ccccc2-3)cc1 (centres unmarked)
2. NC(=O)c1ccc2c(c1)C(O)(C(F)(F)F)c1ccccc1-2 (centres unmarked)
3. O=C1CCCN1CCOc1cc(-c2cn[nH]c2)c2c(c1)C(O)(C(F)(F)F)c1ccccc1-2 (centres unmarked)
4. OC1(C(F)(F)F)c2ccccc2-c2ccc(-c3ccncc3)cc21 (centres unmarked)

["100 to 1000 nM", "> 1000 nM", "< 100 nM", "100 to 1000 nM"]

###

Target: human PDHK2 (hPDHK2) (Homo sapiens (Human))
Assay: Inhibitory action of PDHK activity in vitro (kinase reaction, residual PDH activity measured)
Format: biochemical
Conditions: PDHK inhibitory activity (class symbol)
pIC50: −log10 of the molar value.
Assign pIC50 to each entry below.

Some solved entries appear below for comparison.
CC(C)(C)Cn1cc(-c2cc(C(N)=O)c3c(c2)C(O)(C(F)(F)F)c2ccccc2-3)cn1 (single isomer, unassigned) [compound 659] : > 7.00
CCn1cc(-c2cc(C(N)=O)c3c(c2)C(O)(C(F)(F)F)c2ccccc2-3)cn1 (single isomer, unassigned; (-)) : > 7.00
Cc1cc(-c2cnn(CCCc3nn[nH]n3)c2)c2c(c1)C(O)(C(F)(F)F)c1ccccc1-2 (single isomer, unassigned) : > 7.00

Required: pIC50, one value per molecule below.
1. OCc1cc(Cl)cc2c1-c1ccccc1C2(O)C(F)(F)F (stereo not drawn)
2. Cn1cc(-c2cc(OC(CO)CO)cc3c2-c2ccccc2C3(O)C(F)(F)F)cn1 (stereo not drawn)

6.00 to 7.00
> 7.00

Required: pIC50, one value per molecule below.
1. COC(=O)c1cc(Cl)c2c(c1)C(O)(C(F)(F)F)c1ccccc1-2 (single isomer, unassigned)
2. CC(C)Cc1cc(-c2cnn(CCO)c2)c2c(c1)C(O)(C(F)(F)F)c1ccccc1-2 (stereo not drawn)
3. CCc1cc(C(N)=O)c2c(c1)C(O)(C(F)(F)F)c1ccccc1-2 (stereo not drawn)
4. O=C(c1cc(CO)c2c(c1)C(O)(C(F)(F)F)c1ccccc1-2)N1CC(O)C1 (stereo not drawn)
5. NC(=O)c1cc(OCCO)cc2c1-c1ccccc1C2(O)C(F)(F)F (stereo not drawn)
6. COC(=O)c1cc(Cl)cc2c1-c1ccccc1C2(O)C(F)(F)F (single isomer, unassigned) [compound 617]

1: 6.00 to 7.00; 2: > 7.00; 3: 6.00 to 7.00; 4: 6.00 to 7.00; 5: 6.00 to 7.00; 6: > 7.00

Required: pIC50, one value per molecule below.
1. COC(=O)c1cc(Cl)cc2c1-c1ccccc1C2(O)C(F)(F)F (stereo not drawn) [compound 616]
2. CC(C)=Cc1cc(-c2cnn(C(CO)CO)c2)c2c(c1)C(O)(C(F)(F)F)c1ccccc1-2 (single isomer, unassigned)
3. CC(C)(O)C(C)(C)n1cc(-c2cc(F)cc3c2-c2ccccc2C3(O)C(F)(F)F)cn1 (single isomer, unassigned)

1: 6.00 to 7.00; 2: > 7.00; 3: > 7.00

Hello, I am looking for reported pIC50 with human PDHK2 (hPDHK2) (Homo sapiens (Human)) for OCC(CO)c1ncc(-c2cc(F)cc3c2-c2ccccc2C3(O)C(F)(F)F)o1 (single isomer, unassigned) . Could you help? > 7.00
